EXPERIMENTAL TARGET: H2 histamine receptors (Cavia porcellus)
TEST SUMMARY: cell-based
Set-up: species or system guinea pig
MEASUREMENT CONDITIONS: vs histamine dose-response; 30 min after addition; 32° C., pH 7.4; results of three experiments; read-out: pA2 Value (apparent dissociation constant of the H2 antagonist) (converted)
Structures can show the parent of a compound that is named as a salt.
Assign Kb to each entry below.
One number for each entry, in nM.

COMPOUND: O=S1(=O)N=C(NCCCOc2cccc(CN3CCCCCCC3)c2)c2ccccc21 [Example 26, hydrochloride]
EXPERIMENTAL TARGET: H2 histamine receptors (Cavia porcellus)
QUANTITATIVE READOUT: 20

Dear colleague, could you please provide Kb for the compounds listed below?
1. O=S1(=O)N=C(NCCCOc2cccc(CN3CCCC3)c2)c2ccccc21 [Example 20, hydrate]
2. NC(N)=Nc1nc(CSCCNC2=NS(=O)(=O)c3ccccc32)cs1

**Result**
25.1
2

---

What inhibition in vivo at 8 mg/kg was measured for each of the following?
Test system: gastric acid secretion
TEST SUMMARY: gastric secretion in the rat, modified Shay procedure of pylorus ligation
Type: in vivo
MEASUREMENT CONDITIONS: intraduodenal, 4 h, Dose 8 mg/kg, i.d., four hours after ligation, read-out: % Inhibition (of acid output)
Where a name gives a salt, the structure may show the parent alone.
Answers are plain numbers, in %.

Some solved cases for reference:
COMPOUND: CCCN(CCC)Cc1cccc(OCCCNC2=NS(=O)(=O)c3ccccc32)c1.Cl [Example 18, hydrochloride]
VALUE UNITS: %
inhibition in vivo at 8 mg/kg: 67

COMPOUND: O=S1(=O)N=C(NCCCOc2cccc(CN3CCCCC3)c2)c2cscc21 [Example 41]
VALUE UNITS: %
inhibition in vivo at 8 mg/kg: 91

COMPOUND: Cl.O=S1(=O)N=C(NCCCOc2cccc(CN3CCCCCC3)c2)c2ccccc21 [Example 24, hydrochloride]
VALUE UNITS: %
inhibition in vivo at 8 mg/kg: 50

**Query** For the compound shown here, CCCCN(CCCC)Cc1cccc(OCCCNC2=NS(=O)(=O)c3ccccc32)c1 [Example 22, hydrochloride, hemihydrate] , give the reported inhibition in vivo at 8 mg/kg.
**Result** 62

---

Please go through the items and note down their Kb.
EXPERIMENTAL TARGET: H2 histamine receptors (Cavia porcellus, UniProt P47747)
Sequence (P47747 whole entry): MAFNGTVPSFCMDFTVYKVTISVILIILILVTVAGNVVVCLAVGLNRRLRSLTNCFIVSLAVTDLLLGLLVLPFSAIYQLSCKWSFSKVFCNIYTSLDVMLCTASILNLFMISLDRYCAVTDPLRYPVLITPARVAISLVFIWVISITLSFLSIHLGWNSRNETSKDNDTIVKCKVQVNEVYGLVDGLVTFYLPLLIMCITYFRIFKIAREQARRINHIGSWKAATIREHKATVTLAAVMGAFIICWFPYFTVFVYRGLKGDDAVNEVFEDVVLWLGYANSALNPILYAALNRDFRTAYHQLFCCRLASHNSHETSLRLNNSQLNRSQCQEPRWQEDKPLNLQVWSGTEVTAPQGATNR
TEST SUMMARY: cell-based
Set-up: species or system guinea pig
MEASUREMENT CONDITIONS: vs histamine dose-response; 30 min after addition; 32° C., pH 7.4; results of three experiments; read-out: pA2 Value (apparent dissociation constant of the H2 antagonist) (converted)
Counter-ions that a name gives are not always drawn.
Answers are plain numbers, in nM.

Solved cases (6 shown):
COMPOUND: O=C1N=C(NCCCOc2cccc(CN3CCCCC3)c2)c2ccccc21 [Example 4, hydrate]
EXPERIMENTAL TARGET: H2 histamine receptors (Cavia porcellus, UniProt P47747)
Kb [nM]: 251
//
COMPOUND: O=S1(=O)N=C(NCCCOc2cccc(CNC3CCCC3)c2)c2ccccc21 [Example 28, hydrochloride]
EXPERIMENTAL TARGET: H2 histamine receptors (Cavia porcellus, UniProt P47747)
Kb [nM]: 25.1
//
COMPOUND: CCCN(CCC)Cc1cccc(OCCCNC2=NS(=O)(=O)c3ccccc32)c1.Cl [Example 18, hydrochloride]
EXPERIMENTAL TARGET: H2 histamine receptors (Cavia porcellus, UniProt P47747)
Kb [nM]: 15.8
//
COMPOUND: Cl.O=S1(=O)N=C(NCCCOc2cccc(CN3CCCCCC3)c2)c2ccccc21 [Example 24, hydrochloride]
EXPERIMENTAL TARGET: H2 histamine receptors (Cavia porcellus, UniProt P47747)
Kb [nM]: 5.75
//
COMPOUND: CCCCNCc1cccc(OCCCNC2=NS(=O)(=O)c3ccccc32)c1 [Example 32, hydrochloride, hemihydrate]
EXPERIMENTAL TARGET: H2 histamine receptors (Cavia porcellus, UniProt P47747)
Kb [nM]: 63.1
//
COMPOUND: CCCCCN(C)Cc1cccc(OCCCNC2=NS(=O)(=O)c3ccccc32)c1
EXPERIMENTAL TARGET: H2 histamine receptors (Cavia porcellus, UniProt P47747)
Kb [nM]: 10

**Query** // Kb lookup, key: CCCCN(CCCC)Cc1cccc(OCCCNC2=NS(=O)(=O)c3ccccc32)c1 [Example 22, hydrochloride, hemihydrate]
**Result** 6.31
